Tested on: SNB-19 CNS
Assay: NCI tumour cell line growth inhibition, 48 h
Endpoint name: TGI

Task item: Can you look up the measured TGI of O=C1C2=C(CCC2)Nc2cccc3ncn1c23 for me?
Reply: > 100 µM

Task item: Now the same for [2H]c1nc(=Nc2cc(NC(=O)C=C)c(N(C)CCN(C)C)cc2OC)[nH]c(-c2cn(C([2H])([2H])[2H])c3ccccc23)c1[2H]
Reply: 3.05 µM

Task item: Please answer likewise for C=CCN1C(=O)/C(=C/c2ccc(C)cc2)N=C1SC1OC(COC(C)=O)C(OC(C)=O)C(OC(C)=O)C1OC(C)=O (stereo not given)
Reply: > 100 µM

Task item: Check CN(C)C(=S)Nc1nnc(Nc2ccccc2)s1 too.
Reply: > 100 µM

Task item: And for COc1ccc(/C=N/n2c(C)nc3c(sc(=S)n3-c3ccccc3)c2=O)cc1 ?
Reply: > 100 µM

---

For each entry below, report its TGI value.
Test system: SR leukemia
Assay: NCI tumour cell line growth inhibition, 48 h
Number in µM, nothing else.

Task item: Return TGI measured with SR leukemia given this compound: C=C1C(=O)C23C(O)CC4C5(C)CCCC4(C(O)OC5)C2C(OC(C)=O)CC1C3O (stereo not given)
Reply: 18.5

Task item: Here is the next compound: CCN(CC)c1ccc(/C=C/C2=[N+](C)c3ccccc3C2(C)C)c(C)c1
Reply: 1.71

Task item: Same again, this time with CSc1ccc(N(C)c2nc(C)nc3c2CCC3)cc1
Reply: 11.6

Task item: Also CCOC(=O)c1c(SCCN2CCOCC2)n(-c2ccccc2)c(=S)n(-c2ccccc2)c1=O , if possible.
Reply: 48.2

---

System: HCC-2998 colon
Assay: NCI tumour cell line growth inhibition, 48 h
Please respond with reported GI50 for every item in the list.

Task item: For the compound shown here, [2H]c1nc(=Nc2cc(NC(=O)C=C)c(N(C)CCN(C)C)cc2OC)[nH]c(-c2cn(C([2H])([2H])[2H])c3ccccc23)c1[2H] , give the reported GI50.
Reply: 1.44 µM

Task item: Try the compound O=C(/C=C/c1cccc(O)c1)c1cccc(-n2cc(-c3ccc4ccccc4c3)[nH]c2=O)c1
Reply: 2.13 µM

Task item: Check c1ccc(-c2nc(N3CCCNCC3)c3nc(-c4ccccc4)oc3n2)cc1 too.
Reply: 1.53 µM

Task item: Repeat with CC(=O)[CH-]C(=O)c1ccccc1.CC(=O)[CH-]C(=O)c1ccccc1.CC1(C)OCC(C2OC3OC(C)(C)OC3C2[O-])O1.CC[O-].[Ti+4] (centres undefined)
Reply: 15.4 µM

---

Consider the following molecules; for each one, report its TGI.
System: HOP-18 NSCLC
Experiment: NCI tumour cell line growth inhibition, 48 h

Task item: Which measured TGI value corresponds to Cc1c(C)c(CC(=O)N2CC2)c(C)c(C)c1CC(=O)N1CC1 ?
Reply: 75.3 µM

Task item: And what about the molecule Cc1cccc(C)c1N1C(=O)C(=O)C(c2nc3ccccc3s2)C(=Nc2cccc3c(=O)[nH][nH]c(=O)c23)C1=O (stereo not given) ?
Reply: > 100 µM

Task item: Thanks! And O=C(CC1(O)C(=O)Nc2c(Cl)ccc(Cl)c21)c1ccc(Cl)cc1Cl (stereo not given) ?
Reply: > 100 µM

Task item: Try Cn1c(=O)nc2n(-c3ccc(Cl)c(C(F)(F)F)c3)c3ccccc3nc-2c1=O next.
Reply: > 100 µM

Task item: Now the molecule CCCCCCC(C)CCCCCCCCCCC(=O)O (stereo not given)
Reply: > 100 µM
